test system: NCI-H23; experiment: NCI tumour cell line growth inhibition, 48 h
Calls of active or inactive are those of the source. No stated cut-off is given here; in the data, active = GI50 up to about 1.1 µM and inactive = higher.
Labels: active, inactive

CC1=NOC(C)(O)/C1=N/O (stereo not given) :: inactive
CCN(CCO)CCNc1ccc(C)c2sc3ccccc3c(=O)c12 :: inactive
N=C(N)NCCCC(NCc1c2ccccc2[n+]([O-])c2ccccc12)C(=O)O (stereo not given) :: inactive
CC12CCC(Br)C(C)(C)C1CC=C1C(=O)OCC1O2 (stereo not given) :: inactive
CC(=O)OC1C(C)OC(OC(=O)C2CCC3C(C2)OC2(CC(OC(=O)/C=C/c4ccccc4)C(C)CO2)C32CO2)C(OC2OC(C)C(O)C(OC(C)=O)C2O)C1O (stereo not given) :: active
CN(C)CCCN1c2ccccc2CCc2cccc([N+](=O)[O-])c21 :: inactive
COC(=O)CN(CC(=O)NCCCBr)C1CCCCC1N(CC(=O)OC)CC(=O)OC (stereo not given) :: inactive
O/N=C1/C(=C/c2ccc(F)cc2)CCCC1C(NO)c1ccc(F)cc1 (stereo not given) :: inactive
CCC(/C=C/c1ccccc1)=N\NC(=S)N/N=C(/C=C/c1ccccc1)CC :: inactive
Cc1ccc(N2C(=O)C(=O)N(/N=C3\C(=O)Nc4ccccc43)C2=S)cc1 :: inactive

Entry source: ChEMBL document CHEMBL1201862
